TESTED_ON: T1, hNPR1-mFc:hANP or hNPR1-hFc:hANP complex (human, UniProt P01160 124-151)
T1 construct: also called human NPR1 complexed to ANP
ASSAY: SPR, mAb captured, 37C
# maps each entry to its 100 nM Ag Bound (RU)
READOUT_LABEL: 100 nM Ag Bound (RU)

1) mAb25508 (antibody, human IgG4, V domains shown) VH: EVQLVESGGGVVRPGGSLRLSCAASGFNVDDYGMSWVRQIPGKGLEWISGINWNGGRIYYADSMKGRITISRDNAKNSLYLQMNSLRAEDTALYHCVRDQWLVRGLDYWGQGTLVTVSS VL: DIQMTQSPSSLSASVGDRVTITCRASQGIYNYLAWFQQKPGKAPKSLIYAASSLQSGVPSKFSGSGSGTDFTLTISSLQPEDFATYYCQQYNTYPYTFGQGTKLEIK	230
2) mAb22810 (antibody, human IgG4, V domains shown) VH: EVQLVESGGGLVKPGGSLRLSCVVSGFTFRIYTMNWVRQAPGKGLEWVASISSSSSFINYADSLKGRFTISRDNAQNSLYLQMNSLRAEDTAIYYCARAAGNDVLPGRMDVWGQGTSVTVSS VL: EIVLTQSPGTLSLSPGERATLSCRASQSVSSNYLAWYQQKPGQVPSLLIYGASSRATGIPDRFSGSGSGTDFTLTITRLEPEDFAVYYCQQYGISPWTFGQGTKVEIK	26
3) mAb25497 (antibody, human IgG4, V domains shown) VH: QVQLVQSGAEVKEPGASVKVSCKASGYTFTDYYIHWVRQAPGQGLEWMGWINLNSGGKNHAQKFQGRVTVTSDTSINTAYIELGRLRGDDTAVYYCSRGGGSHYYYYYHGMDVWGQGTTVTVSS VL: DIQMTQSPSSLSASVGDRITITCRASHSIDSYLNWYQQKPGKAPKLLIYPASTLQSGVPSRFSGSGSGTDFTLTISSLQPEDSAIYYCQQSYSTPLTFGGGTKVEIK	60
4) mAb25502 (antibody, human IgG4, V domains shown) VH: QLQLQESGPGLVKPSETLSLTCTVSGGSISSSSYYWGWIRQPPGKGLEWIGSIYYSGSPYYIPSLKSRVTISVDTSKNQFSLKLSSVTAADTAMYYCARQGRGIARAGPFDYWGQGTLVTVSS VL: DIQMTQSPSSLSASVGDRVTITCRASQGISNYLAWYQEKPGKVPKLLIYAASTLQSGVPSRFSGSGSGTDFTLTITSLQSEDVATYYCQKYNSAPPWTFGQGTKVEIK	105
5) mAb22809 (antibody, human IgG4, V domains shown) VH: QLQLRESGPGLVKPSETLSLTCTVSGGSINDNSFFWDWIRQTPGRGLEWIGNIFFDGNTYYTPSLKSRVIISVDMSQNQFSLRLTSVTAADTALYYCARHKRSMTAWGFFDYWGQGTLVTVSS VL: DIQMTQSPSSLSASVGDRVTITCRASKRINTYLNWYQQKPGKAPKVLIYSASNLQSGVPSRFSGSGSGTDFTLTINSLQPEDFATYFCQQSFSAPPITFGQGTRLEIK	68

Values were extracted from patent US20240309103A1.
